Below, each of the compounds is paired with its reported Potency value.
Experiment: Quantitative High-Throughput drug screen in 47 multiple myeloma cell lines against the NCATS MIPE library collection: OPM1_PLB cell viability assay (AID 1918989); also: potency is read from the fitted curve at half-maximal effect; nearly all actives have a fitted effect of over 40% in size
Conditions: CellTiter-Glo, 48 h; series mostly up to 45.8 µM
Results filed as inconclusive are left out. Calls of active or inactive are those of the source. Calls follow the shape of the dose curve; as a rule, active = well fitted cell-killing curve with a large enough effect; inconclusive = small, poorly fitted or top-dose-only effect, or effect the other way; inactive = no such curve, though single readings can be large or run the other way.

COMPOUND STRUCTURE	Potency
CO[C@@H]1[C@H](N(C)C(=O)c2ccccc2)C[C@H]2O[C@]1(C)n1c3ccccc3c3c4c(c5c6ccccc6n2c5c31)C(=O)NC4	1.18 µM (active)
N#CC[C@H](C1CCCC1)n1cc(-c2ncnc3[nH]ccc23)cn1	6.62 µM (active)
O=S(=O)(N=Cc1c(O)ccc2ccccc12)c1cccs1	7.43 µM (active)
Fc1ccc(Cl)cc1-c1nc(Nc2ccncc2)c2nccnc2n1	14.8 µM (active)
CCc1cncnc1N1CCN(Cc2nc3ccc(C(F)(F)F)cc3[nH]2)CC1	18.7 µM (active)

---

Test: qHTS Assay for Identification of Small Molecule Agonists for Thrombopoietin (TPO) Signaling Pathway (AID 917)
Details: TPO signaling pathway reporter cells, agonist qHTS, stimulated with TPO at its EC50; series mostly up to 38.5 µM
Records with an inconclusive call do not appear. Activity calls are given as the source filed them. The call rests on the fitted dose curve; in most records, active means well fitted activation curve with a large enough effect; inconclusive means small, poorly fitted or top-dose-only effect, or effect the other way; inactive means flat fitted curve, though single readings scatter.

COMPOUND STRUCTURE	outcome
O=c1n(CCCN2CCN(c3cccc(Cl)c3)CC2)nc2ccccn12	inactive
Nc1nc2ccc(OC(F)(F)F)cc2s1	inactive
Cc1[nH]c(=O)c(C#N)cc1-c1ccncc1	inactive
CNC[C@H](O)c1cccc(O)c1	inactive
CC(=O)Oc1ccccc1C(=O)O	inactive
NC(=O)c1cnccn1	inactive
CCCCNc1cc(C(=O)O)cc(S(N)(=O)=O)c1Oc1ccccc1	inactive

---

Molecular target: N-terminal Xaa-Pro-Lys N-methyltransferase 1 (Homo sapiens)
Test: qHTS Assay for Inhibitors of N-terminal methyltransferase 1 (NTMT1): LOPAC validation of the NTMT1 SAHH-coupled ThioGlo3 Assay (AID 1347143);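 also: SAH from peptide methylation measured as thiol fluorescence via SAHH coupling and ThioGlo3; nearly all actives have a fitted effect of over 70% in size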
Conditions: recombinant NTMT1, SAHH-coupled ThioGlo3 fluorescence; series mostly up to 114 µM
Records with an inconclusive call do not appear. Activity calls are given as the source filed them. Calls follow the shape of the dose curve; as a rule, active = well fitted inhibition curve with a large enough effect; inconclusive = small, poorly fitted or top-dose-only effect; inactive = no such curve, though single readings can be large or run the other way.
Labels: Y for active, N for inactive

MOLECULE	CLASSIFICATION
Cn1cnc([N+](=O)[O-])c1Sc1ncnc2nc[nH]c12	N
O=C1CCC(N2C(=O)c3ccccc3C2=O)C(=O)N1 (configuration not stated)	N
NCCCC(N)(C(=O)O)C(F)F (configuration not stated)	N
O=c1n(CCCN2CCN(c3cccc(Cl)c3)CC2)nc2ccccn12	Y
CC(C)C[C@H](NC(=O)[C@@H](O)[C@H](N)Cc1ccccc1)C(=O)O	N
CS(=O)(=O)c1cccc(CNc2nc(Nc3ccc4c(c3)CCC(=O)N4)ncc2C(F)(F)F)c1	Y
CC(C)(Sc1ccc(CCN(CCCCC2CCCCC2)C(=O)NC2CCCCC2)cc1)C(=O)O	N
NS(=O)(=O)c1cc2c(cc1Cl)NC=NS2(=O)=O	N
Cc1ccccc1C(OCCN(C)C)c1ccccc1 (configuration not stated)	N
O=C1CCc2cc(OCCCCc3nnnn3C3CCCCC3)ccc2N1	N
Oc1ccc(C2CNCCc3c2cc(O)c(O)c3Cl)cc1 (configuration not stated)	Y
CCCC(CCC)C(=O)O	N

---

Test: qHTS of pediatric cancer cell lines to identify multiple opportunities for drug repurposing: Primary screen for A673 cells (AID 1347092); also: nearly all actives have a fitted effect of over 45% in size
Details: A673 Ewing sarcoma viability, CellTiter-Glo ATP luminescence, 48 h; series mostly up to 46 µM
Records with an inconclusive call do not appear. Calls of active or inactive are those of the source. Calls follow the shape of the dose curve; as a rule, active = well fitted cell-killing curve with a large enough effect; inconclusive = small, poorly fitted or top-dose-only effect; inactive = no such curve, though single readings can be large or run the other way.
Labels: 1 = active, -1 = inactive

COMPOUND	CLASSIFICATION
CO[C@@H]1[C@H](N(C)C(=O)c2ccccc2)C[C@H]2O[C@]1(C)n1c3ccccc3c3c4c(c5c6ccccc6n2c5c31)C(=O)NC4	1
Cc1[nH]c(=O)c(C#N)cc1-c1ccncc1	-1
CS(=O)(=O)Oc1ccc2c(NC(N)=O)c(C(=O)c3ccc(Cl)cc3Cl)oc2c1	1
COc1ccc(-c2ccc3c(N4CCOCC4)nc(N4C[C@@H](C)O[C@@H](C)C4)nc3n2)cc1CO	1
Cn1cnc2c(F)c(Nc3ccc(Br)cc3Cl)c(C(=O)NOCCO)cc21	1
C[C@@H]1CN(Cc2ccc(F)cc2)[C@@H](C)CN1C(=O)c1cc2c(C(=O)C(=O)N(C)C)cn(C)c2cc1Cl	1
CC(c1cc2ccccc2s1)N(O)C(N)=O (centres undefined)	-1
OCCn1cc(-c2cnc3nnn(Cc4ccc5ncccc5c4)c3n2)cn1	-1
CN(C(=O)c1ccc(F)cc1C(F)(F)F)C1CCN(c2nnc(-c3ccnn3C)c3ccccc23)CC1	1

---

Target: Glutathione peroxidase 1 (Homo sapiens)
Assay: Primary qHTS Assay for Inhibitors of Recombinant Selenoprotein Glutathione Peroxidase 1 (GPX1) (AID 1845191); also: nearly all actives have a fitted effect of over 65% in size
Conditions: recombinant GPX1, GR-coupled NADPH fluorescence, 15 min; series mostly up to 48.8 µM
Results filed as inconclusive are left out. The source made the active and inactive calls. Calls follow the shape of the dose curve; as a rule, active = well fitted inhibition curve with a large enough effect; inconclusive = small, poorly fitted or top-dose-only effect; inactive = flat fitted curve, though single readings scatter.
Labels: true (1) (active), false (0) (inactive)

COMPOUND	CLASSIFICATION
CCn1c(-c2nonc2N)nc2c(C#CC(C)(C)O)ncc(OC[C@H]3CCCNC3)c21	false (0)
OC[C@H](Cc1ccccc1)Nc1nc(Oc2ccc3c(c2)CCC3)nc2c1ncn2Cc1ccc(-c2ccccc2)cc1	false (0)
NS(=O)(=O)c1cc2c(cc1Cl)NC=NS2(=O)=O	false (0)
O=C1CCC(N2C(=O)c3ccccc3C2=O)C(=O)N1 (stereo not given)	false (0)
OC(CCN1CCCCC1)(c1ccccc1)C1CC2C=CC1C2 (stereo not given)	false (0)
O=C1[C@H](Cc2ccc(O)cc2)N2C(=O)CCN(C(=O)NCc3ccccc3)[C@H]2CN1Cc1cccc2ccccc12	false (0)
CS(=O)(=O)c1ccc(C(=O)Nc2ccc(Cl)c(-c3ccccn3)c2)c(Cl)c1	false (0)
Cc1cccc(-c2[nH]c(C(C)(C)C)nc2-c2ccc3nccnc3c2)n1	false (0)
CNCc1ccc(-c2[nH]c3cc(F)cc4c3c2CCNC4=O)cc1	true (1)
CCN(c1ccccc1)c1cc(NC)[n+](C)c(C)n1	false (0)

---

Assay: Quantitative High-Throughput drug screen in 47 multiple myeloma cell lines against the NCATS MIPE library collection: JIM3_ECACC cell viability assay (AID 1918963; also: nearly all actives have a fitted effect of over 35% in size)
Conditions: JIM3 myeloma viability, CellTiter-Glo ATP, 48 h; series mostly up to 45.8 µM
Results filed as inconclusive are left out. Calls of active or inactive are those of the source. Calls come from the whole dose curve; as a rule, active = well fitted cell-killing curve with a large enough effect; inconclusive = small, poorly fitted or top-dose-only effect; inactive = no such curve, though single readings can be large or run the other way.
Labels: active, inactive

MOLECULE	CLASSIFICATION
Oc1ccc(C2CNCCc3c2cc(O)c(O)c3Cl)cc1 (stereo not given)	inactive
Nc1nc2ccc(OC(F)(F)F)cc2s1	inactive
CN1CCN(CCCN2c3ccccc3Sc3ccc(C(F)(F)F)cc32)CC1	active
COc1ccc([C@@H]2CC(=O)c3c(O)cc(O[C@@H]4O[C@H](CO[C@@H]5O[C@@H](C)[C@H](O)[C@@H](O)[C@@H]5O)[C@@H](O)[C@H](O)[C@@H]4O)cc3O2)cc1O	inactive
CCN(c1ccccc1)c1cc(NC)[n+](C)c(C)n1	inactive
COCCNCCCn1c(C(=O)CF)c(-c2ccc(C)cc2)c2c(N)ncnc21	inactive
c1ccc(-c2nn3c(c2-c2ccnc4cc(OCCN5CCOCC5)ccc24)CCC3)nc1	inactive
N[C@@H]1CONC1=O	inactive
O=NN(CCCl)C(=O)NCCCl	inactive
CC1(C)SCCN(S(=O)(=O)c2ccc(OCC#CCO)cc2)[C@@H]1C(=O)NO	inactive

---

Test system: TAB165
Assay: qHTS profiling for inhibitors of Plasmodium falciparum proliferation (AID 504749); also: nearly all actives have a fitted effect of over 60% in size
Conditions: P. falciparum in erythrocytes, SYBR Green DNA, 72 h; series mostly up to 28.7 µM
Results filed as inconclusive are left out. The source made the active and inactive calls. The call rests on the fitted dose curve; in most records, active means well fitted inhibition curve with a large enough effect; inconclusive means small, poorly fitted or top-dose-only effect; inactive means flat fitted curve, though single readings scatter.
Labels: active, inactive

COMPOUND	TGT	CLASSIFICATION
Oc1ccc(C2CNCCc3c2cc(O)c(O)c3Cl)cc1 (configuration not stated)	TAB165	inactive
Cn1cnc([N+](=O)[O-])c1Sc1ncnc2nc[nH]c12	TAB165	active
NC(=O)c1cnccn1	TAB165	inactive
Clc1ccc(Nc2nnc(Cc3ccncc3)c3ccccc23)cc1	TAB165	active
O=C1CCC(N2C(=O)c3ccccc3C2=O)C(=O)N1 (configuration not stated)	TAB165	inactive
NC[C@H](O)c1ccc(O)c(O)c1	TAB165	inactive
O=c1[nH]cnc2[nH]ncc12	TAB165	inactive
CC(C)NCC(O)COc1ccc(COCCOC(C)C)cc1 (configuration not stated)	TAB165	inactive
CCCc1nc2c(C)cc(-c3nc4ccccc4n3C)cc2n1Cc1ccc(-c2ccccc2C(=O)O)cc1	TAB165	active
OC(CN1CCC(Cc2ccc(F)cc2)CC1)c1ccc(Cl)cc1 (configuration not stated)	TAB165	active
CC(c1cc2ccccc2s1)N(O)C(N)=O (configuration not stated)	TAB165	inactive
CC(C)C[C@H](NC(=O)[C@@H](O)[C@H](N)Cc1ccccc1)C(=O)O	TAB165	active
